# Test system: MS2 coat protein
# experiment: apparent KD of MS2 coat protein; designed switch direction (-1 OFF switch, 1 ON switch): -1; higher = weaker reporter binding
# test-parameters: input ligand: none
Consider the following sequences and their measured apparent KD of MS2 coat protein readings.
The figure you give is taken to be in nM; do not add the unit.

Given the entry AGUUGUUGUUUCCGUUCUUACAUGAGGAUCACCCAUGUUUCUUGUCGUGCUCGCGUUGCUCGUCUGGCUGCCUGUUG [salish99_TOv1_r3_069] (Eterna round: R96, puzzle: Sensor v3, turn-off variant 1) , report its measured apparent KD of MS2 coat protein.
46.4

# input sequence: AUAAUGUCAGGAUAUCAGACGUACAGCUUCGGCUGUACGUCUGAGAAGGGACAUGAGGAUCACCCAUGUGAUUA [E4/3-A1] (Eterna round: R97, puzzle: Exclusion 4) ; wanted: its apparent KD of MS2 coat protein
940

apparent KD of MS2 coat protein for AUAAUGUGAGGAUAUCAGUCGACUAGCCUCGGCUAGUCGACUGAGAAGGCACAUGAGGAUCACCCAUGUAGAUC [E4/17-A2] (Eterna round: R97, puzzle: Exclusion 4) ?
825

* * *

Below: a set of entries, each annotated with reported apparent KD of MS2 coat protein.
# Tested on: MS2 coat protein
# experiment: apparent KD of MS2 coat protein; designed switch direction (-1 OFF switch, 1 ON switch): -1; higher = weaker reporter binding
# test-parameters: input ligand: microRNA oligo, concentration not stated
# value in nM; strip the unit string

Some sequences with recorded apparent KD of MS2 coat protein:
{"residue-string": "UUUUCAUAUGAAGGAUAUACUUAACAUGAGGAUCACCCAUGUGGUGUUGUGAGUGAGUGAGUUUAGUAGAAGGUCAAUUCUUUU [JMF's solution 90] (Eterna round: R96, puzzle: Exclusion NG 2)", "recorded-metric": "apparent KD of MS2 coat protein", "observed-value": 277}
{"residue-string": "AGCUGUGGCCGAGGAUAUCACAUGAGGAUCACCCAUGUAUAUGAUUAGGCCUGGUAACAGGCUCGUGAGAAGGCGGUCUCAGCA [Eli eng2 - 012] (Eterna round: R96, puzzle: Exclusion NG 2)", "recorded-metric": "apparent KD of MS2 coat protein", "observed-value": 19.5}
{"residue-string": "UCUCGUAGGCAAGGAUAUCCUACAUUGUUCUGGCCCGGGCAUGCUACAUGAGGAUCACCCAUGUGGGAGAAGGUGCGCCACUGC [Design 27] (Eterna round: R96, puzzle: Exclusion NG 2)", "recorded-metric": "apparent KD of MS2 coat protein", "observed-value": 39.7}

What apparent KD of MS2 coat protein value was documented for this sequence, ACGGUUCUCCUCAGCUACAUGAGGAUCACCCAUGUGACUGAGCAGGAUAUACAUAAGUGCGAAAAGUAGAAGGGCUCGGCGCAC [Xeora] (Eterna round: R96, puzzle: Exclusion NG 3) ?
8.75

Returns the measured apparent KD of MS2 coat protein for the input sequence. Input: ACGUACUGAGGAUAUACGAACAUGUCAAAAGACGUGAAGGGACAUGAGGAUCACCCAUGUAGAAGGCAGUACGA [Mat - Exclusion 2 - JL mod - D7] (Eterna round: R96, puzzle: Exclusion 2)
32.7

May I ask what apparent KD of MS2 coat protein has been recorded for GGCGUGUCGCGAGGAUAUUCAAACGGACAUGAGGAUCACCCAUGUGAAAGGAAUGUCGAGGUUAUGGAGAAGGCGUUCACGCCG [Qubizace] (Eterna round: R96, puzzle: Exclusion NG 2) ?
92

Can you look up the measured apparent KD of MS2 coat protein of UUGUUAUAUGUAGGAUAUGCAUAUUAUUAUUAUGCAGAAGGACAUGAGGAUCACCCAUGUAUAUUGUUGUUAUAUAUUAUAUAU [Title] (Eterna round: R96, puzzle: Exclusion NG 1) for me?
18.2

Reported apparent KD of MS2 coat protein for GUGGGUUACAUGAGGAUCACCCAUGUAUAGUGGGAAAAGAUAUAGGAUAUAAUAUAAAAAUUAUAUUAGAAGGAUAGAGACUAG [AK ExNG3-1.1] (Eterna round: R96, puzzle: Exclusion NG 3) : what is it?
260

Looking for the measured apparent KD of MS2 coat protein of GUCAGCUCGUGAGGAUAUGCACAUGAGGAUCACCCAUGUAAGAUCAAGCUGCUUCGGCAGCAAGUGCAGAAGGCACGAGCUGAC [ENG2/9-A1] (Eterna round: R96, puzzle: Exclusion NG 2) , can you help?
138

Which apparent KD of MS2 coat protein value is on record for AUUAUAUAGACAGGAUAUAGAAUAUUAUUUUAACAUGAGGAUCACCCAUGUAACCUUAUGUGUAGCUAGAAGGGUCAUUUAUUA [Title] (Eterna round: R96, puzzle: Exclusion NG 2) ?
77.4

Looking for the measured apparent KD of MS2 coat protein of UGAGUGCUGCGAGGAUAUACAUGAGGAUCACCCAUGUAAUCGUGUGAGGCUAUGCCUCACACGAAGUAGAAGGCGCAGUACUCU [Mat - Exclusion NG 2 - Mod of JL - D16] (Eterna round: R96, puzzle: Exclusion NG 2) , can you help?
8.33

Quick one: apparent KD of MS2 coat protein of AGUAGGUCUACCUUGGUGGAUCUGCAUUUUUGCAGGUGUACAUGAGGAUCACCCAUGUCCUCAUUUGCUCGUCUUAU [JL turnoff v2 99.30] (Eterna round: R96, puzzle: Sensor v3, turn-off variant 2) ?
599
